- assay text: Tmax value after 15 mg/kg iv dose in Dogs
- Assay type: ADME, organism-based, Canis lupus familiaris
- Parameters: dose 15 mg/kg, route intravenous
- condition label: dog, in vivo

>  <smiles string>
Cc1cc(C(=O)Nc2cccn([C@@H](Cc3ccc(F)c(F)c3)C(=O)N[C@H](/C=C/C(=O)OC(C)C)C[C@@H]3CCNC3=O)c2=O)no1

>  <Tmax>
4 min

$$$$

---

- target desc: Human rhinovirus A protease (Human rhinovirus sp.) (UniProt Q4U254)
- Sequence (Q4U254 as listed by the source): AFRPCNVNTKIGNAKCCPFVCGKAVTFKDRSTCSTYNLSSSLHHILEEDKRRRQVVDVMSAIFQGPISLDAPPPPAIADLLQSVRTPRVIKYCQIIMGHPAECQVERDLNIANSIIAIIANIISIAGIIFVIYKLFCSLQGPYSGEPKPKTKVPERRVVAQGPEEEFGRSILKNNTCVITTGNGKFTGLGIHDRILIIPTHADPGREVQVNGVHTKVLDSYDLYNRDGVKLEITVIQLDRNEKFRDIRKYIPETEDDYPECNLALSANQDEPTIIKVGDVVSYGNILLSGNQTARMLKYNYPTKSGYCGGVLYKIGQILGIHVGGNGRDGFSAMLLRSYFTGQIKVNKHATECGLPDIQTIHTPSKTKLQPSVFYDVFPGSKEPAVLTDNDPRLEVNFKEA
- assay text: cytotoxicity against HRV Protease 3CP (serotype 10)
- Type: functional
measured quantity: CC50

>  <smiles string>
CCOC(=O)/C=C/[C@H](CCC(N)=O)NC(=O)[C@H](Cc1ccccc1)n1cccc(NC(=O)C2SCCS2)c1=O

>  <measured quantity>
CC50

>  <endpoint value>
> 10 µM

$$$$
>  <smiles string>
CCOC(=O)/C=C/[C@H](C[C@@H]1CCNC1=O)NC(=O)[C@H](Cc1ccc(F)c(F)c1)n1cccc(NC(=O)c2cc(C)on2)c1=O

>  <measured quantity>
CC50

>  <endpoint value>
> 10 µM

$$$$
>  <smiles string>
CCOC(=O)/C=C/[C@H](C[C@@H]1CCNC1=O)NC(=O)[C@H](Cc1ccc(F)cc1)n1cccc(NC(=O)c2cc(C)on2)c1=O

>  <measured quantity>
CC50

>  <endpoint value>
> 10 µM

$$$$
>  <smiles string>
Cc1cc(C(=O)Nc2cccn([C@@H](Cc3ccc(F)c(F)c3)C(=O)N[C@H](/C=C/C(=O)OC(C)C)C[C@@H]3CCNC3=O)c2=O)no1

>  <measured quantity>
CC50

>  <endpoint value>
> 10 µM

$$$$

---

- assay text: Volume distribution after 15 mg/kg iv dose in Dogs
- Assay type: ADME, organism-based, Canis lupus familiaris
- Parameters: dose 15 mg/kg, route intravenous
- condition label: dog, in vivo, read-out: V

>  <smiles string>
Cc1cc(C(=O)Nc2cccn([C@@H](Cc3ccc(F)c(F)c3)C(=O)N[C@H](/C=C/C(=O)OC(C)C)C[C@@H]3CCNC3=O)c2=O)no1

>  <unit>
L/kg

>  <Vd>
4.2

$$$$

---

- assay text: Cmax value after 30 mg/kg po dose in Dogs
- Format: ADME, organism-based, Canis lupus familiaris
- Set-up: dose 30 mg/kg, route oral
- condition label: dog, in vivo
measured quantity: Cmax (µg/mL)

>  <smiles string>
Cc1cc(C(=O)Nc2cccn([C@@H](Cc3ccc(F)c(F)c3)C(=O)N[C@H](/C=C/C(=O)OC(C)C)C[C@@H]3CCNC3=O)c2=O)no1

>  <endpoint value>
3.5

$$$$

---

- assay text: Half life period after 30 mg/kg po dose in Dogs
- Format: ADME, organism-based, Canis lupus familiaris
- Parameters: dose 30 mg/kg, route oral
- condition label: dog, in vivo

>  <smiles string>
Cc1cc(C(=O)Nc2cccn([C@@H](Cc3ccc(F)c(F)c3)C(=O)N[C@H](/C=C/C(=O)OC(C)C)C[C@@H]3CCNC3=O)c2=O)no1

>  <half-life>
3.4 h

$$$$

---

- assay text: Oral bioavailability after 30 mg/kg po dose in Dogs
- Format: ADME, organism-based, Canis lupus familiaris
- condition label: dog, in vivo

>  <smiles string>
Cc1cc(C(=O)Nc2cccn([C@@H](Cc3ccc(F)c(F)c3)C(=O)N[C@H](/C=C/C(=O)OC(C)C)C[C@@H]3CCNC3=O)c2=O)no1

>  <bioavailability>
48%

$$$$

---

- assay text: AUC value after 30 mg/kg po dose in Dogs
- Assay type: ADME, organism-based, Canis lupus familiaris
- Set-up: dose 30 mg/kg, route oral
- condition label: dog, plasma

>  <smiles string>
Cc1cc(C(=O)Nc2cccn([C@@H](Cc3ccc(F)c(F)c3)C(=O)N[C@H](/C=C/C(=O)OC(C)C)C[C@@H]3CCNC3=O)c2=O)no1

>  <AUC>
16300 ng·h/mL

$$$$

---

- assay text: Cmax value after 15 mg/kg iv dose in Dogs
- Type: ADME, organism-based, Canis lupus familiaris
- Parameters: dose 15 mg/kg, route intravenous
- condition label: dog, in vivo
measured quantity: Cmax (µg/mL)

>  <smiles string>
Cc1cc(C(=O)Nc2cccn([C@@H](Cc3ccc(F)c(F)c3)C(=O)N[C@H](/C=C/C(=O)OC(C)C)C[C@@H]3CCNC3=O)c2=O)no1

>  <endpoint value>
10.6

$$$$

Cited source for all entries: ChEMBL document CHEMBL1135913
